Each entry below lists one item and its recorded EC50 value.
target: Dual specificity tyrosine-phosphorylation-regulated kinase 1A (Homo sapiens); assay: Inhibition of recombinant DYRK1A (unknown origin) using Ser/Thr 18 peptide as substrate incubated for 1 hr in presence of ATP by FRET assay
API: value field is a number in nM; no unit string.

>  <SMILES ENTRY>
COc1cncc(-c2ccc3[nH]nc(-c4nc5c(-c6cccc(F)c6)nccc5[nH]4)c3n2)c1

>  <TARGET OF ASSAY>
Dual specificity tyrosine-phosphorylation-regulated kinase 1A (Homo sapiens)

>  <UNIT SPEC>
nM

>  <QUANTITATIVE READOUT>
46

$$$$

# EC50 lookup, item FC1(F)CCN(Cc2cncc(-c3ccc4[nH]nc(-c5cc6cccnc6[nH]5)c4n3)c2)C1 11

# EC50 lookup, item CN1CCC(Oc2ncc(NC(=O)c3n[nH]c4cc(F)c(-c5cnn(C)c5)cc34)cc2F)CC1 1

# EC50 lookup, item COc1cncc(C#Cc2c[nH]nc2C(=O)Nc2ccc(N3CCNCC3)nc2)c1 11

# EC50 lookup, item CC(C)CC(=O)Nc1cncc(-c2cc3c(-c4cc5c(-c6cccs6)nccc5[nH]4)n[nH]c3cn2)c1 44

# EC50 lookup, item CN(C)C(=O)Nc1cncc(-c2cnc3[nH]nc(-c4nc5c(-c6cccc(F)c6)cncc5[nH]4)c3c2)c1 4

# EC50 lookup, item O=C(Nc1cncc(-c2ccc3[nH]nc(-c4cc5c(-c6cccnc6)cncc5[nH]4)c3c2)c1)c1ccccc1 35

# EC50 lookup, item c1cncc(-c2cnc3[nH]nc(-c4cc5cccnc5[nH]4)c3c2)c1 9

# EC50 lookup, item Cc1n[nH]c2ccc(-c3cncc(N4CC(C)(N)C4)n3)cc12 63
